Overview of reported abundance fitness across a group of variants:
B1: Protein piccolo, residues 1058 to 1114; numbered along this chain, Q9Y6V0 (parent)
chain: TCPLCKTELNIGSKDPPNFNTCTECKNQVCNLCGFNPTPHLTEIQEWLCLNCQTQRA

variants of: B1; test: abundance fitness (aPCA) (normalised: wild type 0, dead -1); higher = more abundant; growth selection in yeast, the domain comes from the species named; details: Homo sapiens
Field format: numeric only.

Below are worked cases with known answers.
INSERT INTO measurements (variant_identifier, measurement) VALUES
  ('L41F', 0.149),
  ('T23N', -0.342),
  ('P17G', -0.097),
  ('L48Q', -0.274);

--- query ---
Task: Data request, read-out abundance fitness, for N36A
Output: -0.097
